Data origin: paper PMC11763264

Tested on: MRSA (ATCC BAA-1556)
test details: microbe, parasite or virus in culture
Assay type: cell-based, Methicillin-Resistant Staphylococcus aureus
settings: ATCC BAA-1556, 24 h
Non-standard residues stand in square brackets, D forms with d. Residues, ends and D or L forms follow the SMILES beside them. Dip = N[C@H](C(=O)O)C(c1ccccc1)c1ccccc1
readout: MIC (µM)
Give the quantity in µM, number only.

1) N=C(N)NCCC[C@H](NC(=O)[C@@H](NC(=O)[C@H](CCCNC(=N)N)NC(=O)[C@@H](NC(=O)[C@H](CCCNC(=N)N)NC(=O)[C@H](Cc1c[nH]c2ccccc12)NC(=O)[C@H](CCCNC(=N)N)NC(=O)[C@H](Cc1c[nH]c2ccccc12)NC(=O)[C@H](CCCNC(=N)N)NC(=O)[C@@H](N)Cc1c[nH]c2ccccc12)C(c1ccccc1)c1ccccc1)C(c1ccccc1)c1ccccc1)C(=O)O [((DipR)2(WR)3)] (H-WRWRWR[Dip]R[Dip]R-OH)    3.1

Below: the item to evaluate.
Ask | Report MIC for N=C(N)NCCC[C@@H]1NC(=O)[C@H](Cc2c[nH]c3ccccc23)NC(=O)[C@H](CCCNC(=N)N)NC(=O)[C@H](C(c2ccccc2)c2ccccc2)NC(=O)[C@H](CCCNC(=N)N)NC(=O)[C@H](C(c2ccccc2)c2ccccc2)NC(=O)[C@H](CCCNC(=N)N)NC(=O)[C@H](C(c2ccccc2)c2ccccc2)NC(=O)[C@H](CCCNC(=N)N)NC(=O)[C@H](Cc2c[nH]c3ccccc23)NC1=O [[(DipR)3(WR)2]] (cyclo([Dip]R[Dip]R[Dip]RWRWR))
Reply | 3.1
